# study_conditions: akkermansia muciniphila, 12 h, 2 µM
# Description: The drug is tested on Akkermansia muciniphila strain: ATCC BAA-835 for biotransformation. The drug concentrations were measured before and after a 12-h incubation by liquid-chromatography-coupled mass spectrometry (LC–MS)

- compound: "CC(C(=O)O)c1ccc2c(c1)Cc1cccnc1O2 (stereo unspecified)"
  Bacterial Biotransformation: "Compound metabolized"
- compound: "C[C@@H]1CC[C@H]2[C@@H](C)C(=O)O[C@@H]3O[C@@]4(C)CC[C@@H]1[C@]32OO4"
  Bacterial Biotransformation: "Compound metabolized"
- compound: "CC(C)(C)NC[C@H](O)COc1nsnc1N1CCOCC1.O=C(O)/C=C\\C(=O)O [TIMOLOL MALEATE]"
  Bacterial Biotransformation: "Compound NOT metabolized"
- compound: "CC(C)NCC(O)c1ccc(NS(C)(=O)=O)cc1 (stereo unspecified)"
  Bacterial Biotransformation: "Compound NOT metabolized"
- compound: "CC[C@H](C)C(=O)O[C@H]1C[C@@H](C)C=C2C=C[C@H](C)[C@H](CC[C@@H]3C[C@@H](O)CC(=O)O3)[C@H]21"
  Bacterial Biotransformation: "Compound NOT metabolized"
- compound: "N#Cc1ccc2c(c1)N(CCCN1CCC(O)CC1)c1ccccc1S2"
  Bacterial Biotransformation: "Compound NOT metabolized"
- compound: "CCCCCOC(=O)Nc1nc(=O)n([C@@H]2O[C@H](C)[C@@H](O)[C@H]2O)cc1F"
  Bacterial Biotransformation: "Compound NOT metabolized"
- compound: "CCOC(=O)[C@H](CCc1ccccc1)N[C@@H](C)C(=O)N1[C@H](C(=O)O)C[C@H]2CCCC[C@@H]21"
  Bacterial Biotransformation: "Compound NOT metabolized"
- compound: "CCN(C(C)=O)c1cccc(-c2ccnc3c(C#N)cnn23)c1"
  Bacterial Biotransformation: "Compound NOT metabolized"
- compound: "O=C1NCC2(CCN(CCc3ccccc3)CC2)O1 [FENSPIRIDE]"
  Bacterial Biotransformation: "Compound NOT metabolized"
- compound: "O=C1CC2(CCCC2)CC(=O)N1CCCCN1CCN(c2ncccn2)CC1"
  Bacterial Biotransformation: "Compound NOT metabolized"
- compound: "CCN(CC)CCNC(=O)c1cc(S(C)(=O)=O)ccc1OC [TIAPRIDE]"
  Bacterial Biotransformation: "Compound NOT metabolized"
- compound: "COC(=O)C1=C(C)NC(C)=C(C(=O)OC(C)C)C1c1cccc2nonc12 (stereo unspecified)"
  Bacterial Biotransformation: "Compound NOT metabolized"
- compound: "CN1C(C(=O)Nc2ccccn2)=C(O)c2sccc2S1(=O)=O"
  Bacterial Biotransformation: "Compound NOT metabolized"
- compound: "C=CC[C@@H]1/C=C(\\C)C[C@H](C)C[C@H](OC)[C@H]2O[C@@](O)(C(=O)C(=O)N3CCCC[C@H]3C(=O)O[C@H](/C(C)=C/[C@@H]3CC[C@@H](O)[C@H](OC)C3)[C@H](C)[C@@H](O)CC1=O)[C@H](C)C[C@@H]2OC.O"
  Bacterial Biotransformation: "Compound metabolized"
- compound: "CC(NC(C)(C)C)C(=O)c1cccc(Cl)c1 (stereo unspecified)"
  Bacterial Biotransformation: "Compound NOT metabolized"

---

# assay: The drug is tested on Dorea formicigenerans strain: ATCC27755 for biotransformation. The drug concentrations were measured before and after a 12-h incubation by liquid-chromatography-coupled mass spectrometry (LC–MS)
# study_conditions: 2 µM
readout_label: Bacterial Biotransformation

- compound: "N#Cc1ccc(C(c2ccc(C#N)cc2)n2cncn2)cc1"
  readout_label: "Bacterial Biotransformation"
  result: "Compound NOT metabolized"
- compound: "COc1ccc2c(c1OC)C(=O)O[C@@H]2[C@H]1c2c(cc3c(c2OC)OCO3)CCN1C"
  readout_label: "Bacterial Biotransformation"
  result: "Compound metabolized"
- compound: "Cc1nc2n(c(=O)c1CCN1CCC(c3noc4cc(F)ccc34)CC1)CCCC2O (configuration not stated)"
  readout_label: "Bacterial Biotransformation"
  result: "Compound metabolized"
- compound: "CC(=O)CCCCn1c(=O)c2c(ncn2C)n(C)c1=O"
  readout_label: "Bacterial Biotransformation"
  result: "Compound NOT metabolized"
- compound: "C[C@@H](c1ncncc1F)[C@](O)(Cn1cncn1)c1ccc(F)cc1F"
  readout_label: "Bacterial Biotransformation"
  result: "Compound NOT metabolized"
- compound: "COc1ccccc1OCCNCC(O)COc1cccc2[nH]c3ccccc3c12 (configuration not stated)"
  readout_label: "Bacterial Biotransformation"
  result: "Compound NOT metabolized"
- compound: "Br.CN1CCC[C@@H]1Cc1c[nH]c2ccc(CCS(=O)(=O)c3ccccc3)cc12 [ELETRIPTAN HYDROBROMIDE]"
  readout_label: "Bacterial Biotransformation"
  result: "Compound NOT metabolized"
- compound: "CCOc1ccc(NC(C)=O)cc1"
  readout_label: "Bacterial Biotransformation"
  result: "Compound NOT metabolized"
- compound: "OC(CCN1CCCCC1)(c1ccccc1)C1CC2C=CC1C2 (configuration not stated)"
  readout_label: "Bacterial Biotransformation"
  result: "Compound NOT metabolized"
- compound: "CN1CCN(C2=Nc3ccccc3Oc3ccc(Cl)cc32)CC1.O=C(O)CCC(=O)O [LOXAPINE SUCCINATE]"
  readout_label: "Bacterial Biotransformation"
  result: "Compound NOT metabolized"
- compound: "OC(Cn1cncn1)(Cn1cncn1)c1ccc(F)cc1F"
  readout_label: "Bacterial Biotransformation"
  result: "Compound metabolized"
- compound: "CC(=O)O[C@]1(C(C)=O)CC[C@H]2[C@@H]3C=C(C)C4=CC(=O)CC[C@]4(C)[C@H]3CC[C@@]21C [MEGESTROL ACETATE]"
  readout_label: "Bacterial Biotransformation"
  result: "Compound NOT metabolized"
- compound: "Cc1nc(Nc2ncc(C(=O)Nc3c(C)cccc3Cl)s2)cc(N2CCN(CCO)CC2)n1.O"
  readout_label: "Bacterial Biotransformation"
  result: "Compound NOT metabolized"
- compound: "CCCc1nn(C)c2c(=O)[nH]c(-c3cc(S(=O)(=O)N4CCN(C)CC4)ccc3OCC)nc12.O=C(O)CC(O)(CC(=O)O)C(=O)O [SILDENAFIL CITRATE]"
  readout_label: "Bacterial Biotransformation"
  result: "Compound NOT metabolized"
- compound: "NS(=O)(=O)c1cc2c(cc1Cl)N=C(CSCc1ccccc1)NS2(=O)=O [BENZTHIAZIDE]"
  readout_label: "Bacterial Biotransformation"
  result: "Compound NOT metabolized"
- compound: "CN1CC(=O)N2[C@H](c3ccc4c(c3)OCO4)c3[nH]c4ccccc4c3C[C@@H]2C1=O"
  readout_label: "Bacterial Biotransformation"
  result: "Compound NOT metabolized"
- compound: "CCc1nn(CCCN2CCN(c3cccc(Cl)c3)CC2)c(=O)n1CCOc1ccccc1"
  readout_label: "Bacterial Biotransformation"
  result: "Compound NOT metabolized"

Cited source: ChEMBL document CHEMBL5303573
